These data points were gathered from PubChem BioAssay (NCI).

System: 786-0 renal
Protocol Description: NCI tumour cell line growth inhibition, 48 h
Measured Property: TGI

O=c1cccccc1[O-].O=c1cccccc1[O-].O=c1cccccc1[O-].[Dy+3] ... > 100 µM

Any idea what its TGI is? The compound is COC(=O)c1ccccc1NCc1cc(O)ccc1O
31.7 µM

Any idea what its TGI is? The compound is COc1cc2nccc(Oc3ccc(NC(=O)C4(C(=O)Nc5ccc(F)cc5)CC4)cc3)c2cc1OC
> 54.9 µM

---

Tested on: OVCAR-5 ovarian
Protocol Description: NCI tumour cell line growth inhibition, 48 h
Entries and their GI50

Below: 4 compounds and their reported GI50.
Cc1cccc(Cc2cnc(NC(=O)CCCOc3ccc(Cl)cc3)s2)c1 ... 5.88 µM
N#Cc1c(N/N=C/c2c(Cl)cccc2Cl)nc(N)nc1N1CCCC1 ... 8.31 µM
OCCn1c(-c2ccncc2)c(-c2ccc(F)cc2)c2ncccc21 ... > 25 µM
Oc1ccc(CCNc2nc3ccccc3c3[nH]c4ccccc4c23)cc1 ... 2.89 µM

Hi! What's the reported GI50 for Oc1ccc(/C=N/Nc2nnc(N/N=C/c3ccc(O)cc3O)c3ccccc23)c(O)c1 on OVCAR-5 ovarian?
1.36 µM
